# TARGET SYSTEM: High affinity choline transporter 1 (Homo sapiens) (UniProt Q9GZV3)
# Sequence (Q9GZV3 whole entry, looked up): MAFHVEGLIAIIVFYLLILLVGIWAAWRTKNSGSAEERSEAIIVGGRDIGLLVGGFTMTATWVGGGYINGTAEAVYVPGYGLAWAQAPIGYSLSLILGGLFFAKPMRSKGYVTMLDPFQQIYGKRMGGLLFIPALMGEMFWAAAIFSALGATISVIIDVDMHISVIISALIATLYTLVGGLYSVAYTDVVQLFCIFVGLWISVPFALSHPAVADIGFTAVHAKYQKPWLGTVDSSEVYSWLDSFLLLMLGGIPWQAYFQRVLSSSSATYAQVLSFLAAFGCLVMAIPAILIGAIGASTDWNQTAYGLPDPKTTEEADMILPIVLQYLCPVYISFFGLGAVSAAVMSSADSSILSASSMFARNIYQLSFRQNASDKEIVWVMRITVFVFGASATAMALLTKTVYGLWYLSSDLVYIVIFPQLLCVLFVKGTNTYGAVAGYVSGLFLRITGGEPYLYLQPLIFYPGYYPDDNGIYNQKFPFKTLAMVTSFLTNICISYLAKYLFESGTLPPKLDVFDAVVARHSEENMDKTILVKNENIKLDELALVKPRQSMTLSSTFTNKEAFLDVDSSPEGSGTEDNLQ
# MEASUREMENT NOTES: inhibitors of human choline transporter CHT (AID 488975);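 as to B-score: choline stimulus applied at its EC90 after an EC20 pre-addition; B-score computed on integrated fluorescence ratio after choline addition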
# DETAILS: CHT-expressing cells, membrane potential dye, choline response, at 10 µM; active compounds read low
The campaign covered roughly 310,000 compounds. About 2,600 (0.84%) were called active. For the sample, actives were picked, then their nearest neighbours and some compounds at random.
QUANTITY MEASURED: B-score

{"MOLECULE": "CCN(CC(=O)Nc1c(F)cccc1F)C(=O)c1ccc(-c2ccccc2)cc1", "TARGET SYSTEM": "High affinity choline transporter 1 (Homo sapiens) (UniProt Q9GZV3)", "RESULT": "inactive"}
{"MOLECULE": "CC(C)c1ccc(S(=O)(=O)N2CCN(C(=O)CN3C(=O)NC(C)(c4ccccc4)C3=O)CC2)cc1 (stereo not drawn)", "TARGET SYSTEM": "High affinity choline transporter 1 (Homo sapiens) (UniProt Q9GZV3)", "RESULT": "inactive"}
{"MOLECULE": "O=C(CN1C(=O)NC2(CCCC2)C1=O)OCCOc1ccc(F)cc1", "TARGET SYSTEM": "High affinity choline transporter 1 (Homo sapiens) (UniProt Q9GZV3)", "RESULT": "inactive"}

* * *

# TARGET SYSTEM: High affinity choline transporter 1 (Homo sapiens)
# MEASUREMENT NOTES: inhibitors of human choline transporter CHT (AID 488975)
# DETAILS: CHT-expressing cells, membrane potential dye, choline response, at 10 µM
Out of some 310,000 compounds screened, about 2,600 (0.84%) were called active.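 The calls were made as follows: active = B-score over 3 SD under the library average, and starting fluorescence ratio not unusually high; inactive = the rest.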 The list comes from a sample in which actives are over-represented; it also holds close analogues and randomly drawn compounds.
Outcome (select one): active, inactive

Solved entries (count: 5):
{"COMPOUND": "Cc1ccc(S(=O)(=O)N2CCN(C(=O)Cc3sc(C)nc3-c3ccc(F)cc3)CC2)c(C)c1", "CLASS NAME": "inactive"}
{"COMPOUND": "CCOc1ccc(CCNC(=O)COC(=O)C2CCN(c3ccc(C(F)(F)F)cn3)CC2)cc1OCC", "CLASS NAME": "inactive"}
{"COMPOUND": "CCOC(=O)c1c(C)oc2cc(Sc3ccccc3)c(O)c(O)c12", "CLASS NAME": "inactive"}
{"COMPOUND": "CCOC(=O)C1CCN(C(=O)c2oc3ccc(S(=O)(=O)N4CCCCCC4)cc3c2C)CC1", "CLASS NAME": "inactive"}
{"COMPOUND": "O=C(Nc1ccc2nc3n(c(=O)c2c1)CCCC3)c1ccc(Cl)nc1", "CLASS NAME": "inactive"}

// next entry
Hi, do you know how CCC(=O)Nc1nnc(S(=O)(=O)N(CC(C)C)c2ccccc2)s1 came out in this test?
active

* * *

# TARGET SYSTEM: High affinity choline transporter 1 (Homo sapiens)
# MEASUREMENT NOTES: inhibitors of human choline transporter CHT (AID 488975)
# DETAILS: CHT-expressing cells, membrane potential dye, choline response, at 10 µM
Screen size: about 310,000 compounds; about 2,600 (0.84%) were called active.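 The calls were made as follows: active = B-score over 3 SD under the library average, and starting fluorescence ratio not unusually high; inactive = the rest.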 The full list was thinned out, with actives kept by preference.
Outcome (select one): active, inactive

{"COMPOUND": "C=CCNc1cnn(-c2ccc(C)cc2)c(=O)c1Cl", "CLASS NAME": "inactive"}
{"COMPOUND": "O=C(NCc1ccccn1)Nc1ccc(F)cc1", "CLASS NAME": "inactive"}
{"COMPOUND": "COc1ccc(NC(=O)c2ccccc2[N+](=O)[O-])cc1OC", "CLASS NAME": "inactive"}
{"COMPOUND": "Fc1ccccc1COc1cccc2cccnc12", "CLASS NAME": "inactive"}

Hi, do you know how CC1CCC(CN2CCN=C2N(C)C)CC1 (configuration not stated) came out in this test?
inactive

Hi, do you know how CCc1ccc(C(=O)NNC(=O)C2CCN(c3ncnc4sc(C)c(C)c34)CC2)cc1 came out in this test?
inactive

Hi, do you know how Cc1ccc(S(=O)(=O)N2CCCCC2)cc1C(=O)N(C)CC(=O)Nc1cccc(F)c1 came out in this test?
inactive

Hi, do you know how COC(=O)c1ccccc1NC(=O)Cn1nc(C(F)(F)F)c2c1CCC2 came out in this test?
active

Hi, do you know how COc1ccc(NC(=O)CN(C)C(=O)c2cc(-c3ccc(C)o3)nc3ccccc23)cc1 came out in this test?
inactive

Hi, do you know how Cn1c(=N)n(CC(O)c2ccccc2)c2ccccc21 (configuration not stated) came out in this test?
inactive

Hi, do you know how COc1ccc2c(c1)OC(O)(C(F)(F)C(F)F)CC2=O (configuration not stated) came out in this test?
active

Hi, do you know how O=C1Nc2ccccc2C12Nc1ccccc1S2 (configuration not stated) came out in this test?
inactive

Hi, do you know how O=C(NCCC1CCCCN1S(=O)(=O)c1ccc(Cl)cc1)C(=O)NCc1ccco1 (configuration not stated) came out in this test?
inactive

* * *

# TARGET SYSTEM: High affinity choline transporter 1 (Homo sapiens)
# MEASUREMENT NOTES: inhibitors of human choline transporter CHT (AID 488975)
# DETAILS: CHT-expressing cells, membrane potential dye, choline response, at 10 µM
About 2,600 (0.84%) of roughly 310,000 compounds were called active.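 Rule for the calls: active = B-score over 3 SD under the library average, and starting fluorescence ratio not unusually high; inactive = the rest.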 Shown is part of a subset that was picked to be rich in actives.
Outcome (select one): active, inactive

Solved entries (count: 5):
{"MOLECULE": "CCOC(=O)N1CCN(C(=O)C2CCN(S(=O)(=O)c3cc(Cl)ccc3OCC)CC2)CC1", "TARGET SYSTEM": "High affinity choline transporter 1 (Homo sapiens)", "CLASS NAME": "inactive"}
{"MOLECULE": "CC(C)(C)S(=O)(=O)c1ccccc1-c1noc(-c2ccccc2)c1C(N)=O", "TARGET SYSTEM": "High affinity choline transporter 1 (Homo sapiens)", "CLASS NAME": "inactive"}
{"MOLECULE": "Cn1cccc1C(=O)NNC(=O)COc1ccc(Br)cc1", "TARGET SYSTEM": "High affinity choline transporter 1 (Homo sapiens)", "CLASS NAME": "inactive"}
{"MOLECULE": "[O-][n+]1ccc(OCc2ccccc2)cc1", "TARGET SYSTEM": "High affinity choline transporter 1 (Homo sapiens)", "CLASS NAME": "inactive"}
{"MOLECULE": "O=C(Nc1ncccc1O)c1ccc(S(=O)(=O)N2CCCCCC2)cc1", "TARGET SYSTEM": "High affinity choline transporter 1 (Homo sapiens)", "CLASS NAME": "inactive"}

Hi, do you know how COc1ccc(N(C)S(=O)(=O)c2ccc3c(c2)CC(C)N3C(=O)C2CC2)c(OC)c1 (stereo not given) came out in this test?
inactive

Hi, do you know how CN(C)CCCN(C(=O)c1ccc(S(=O)(=O)N2CCCCCC2)cc1)c1nc2cc3c(cc2s1)OCCO3 came out in this test?
inactive

Hi, do you know how Cc1c(Cl)cccc1NC(=O)Nc1ccc(C(=O)N2CCCC2)cc1 came out in this test?
inactive

Hi, do you know how CCCCCn1c(=O)[nH]c2cc(C(=O)NCCCN3CCCCC3C)ccc2c1=O (stereo not given) came out in this test?
active

Hi, do you know how COc1ccc(OCC(=O)OCCN(C)C)cc1 came out in this test?
active

Hi, do you know how COc1ccc([C@@H]2[C@@H]3C(=O)N(C(C)(C)C)C(=O)[C@@H]3[C@]3(Cc4ccccc4)C(=O)N(c4cccc(Br)c4)C(=O)N23)cc1 came out in this test?
inactive

Hi, do you know how Cc1ccc(C)c(OCCC(=O)Nc2cccc(S(=O)(=O)N3CCCC3)c2)c1 came out in this test?
inactive

Hi, do you know how O=C(Cc1ccc(S(=O)(=O)N2CCOCC2)s1)N1CCN(c2ccc(C(F)(F)F)cc2[N+](=O)[O-])CC1 came out in this test?
inactive

* * *

# TARGET SYSTEM: High affinity choline transporter 1 (Homo sapiens)
# MEASUREMENT NOTES: inhibitors of human choline transporter CHT (AID 488975)
# DETAILS: CHT-expressing cells, membrane potential dye, choline response, at 10 µM
Hit rate of the full screen: of about 310,000 compounds, about 2,600 (0.84%) were called active.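 How the source made its calls: active means B-score over 3 SD under the library average, and starting fluorescence ratio not unusually high; inactive means the rest.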 The sample holds actives, similar compounds and a random draw of the others, so the mix is not that of the screen.
Outcome (select one): active, inactive

{"MOLECULE": "COc1ccccc1C(=O)Nc1ccccc1C(=O)Nc1ccccc1", "CLASS NAME": "inactive"}
{"MOLECULE": "CNC(=O)/C(=C\\C=C\\c1ccccc1)NC(=O)c1ccc([N+](=O)[O-])cc1", "CLASS NAME": "inactive"}
{"MOLECULE": "CCCn1c(C)cc(-c2csc(NC(=O)CCc3nc4ccccc4c(=O)[nH]3)n2)c1C", "CLASS NAME": "inactive"}
{"MOLECULE": "O=C(O)c1ccc(/C=N/NC(=O)c2ccc(Br)cc2)cc1", "CLASS NAME": "inactive"}
{"MOLECULE": "CCOc1ccc(/C=C2\\SC(=S)N(NC(=O)c3ccncc3)C2=O)cc1OC", "CLASS NAME": "active"}
{"MOLECULE": "CCOC(=O)c1cc(NC(=O)c2cccnc2)ccn1", "CLASS NAME": "inactive"}

Hi, do you know how Cc1cc(C)c(S(=O)(=O)N2CCCC2CNC(=O)c2ccc3c(c2)OCO3)c(C)c1 (stereo not given) came out in this test?
inactive

Hi, do you know how CCC1CCCCN1CCCNC(=O)Cn1nc(-c2ccccc2)ccc1=O (stereo not given) came out in this test?
inactive

Hi, do you know how CCCn1c2ccccc2c2cnn(CC(=O)NCCCN3CCCCC3CC)c(=O)c21 (stereo not given) came out in this test?
active

Hi, do you know how COc1ccccc1C(=O)NNC(=O)CCN1C(=O)/C(=C\c2ccccc2)SC1=S came out in this test?
inactive
